Assayed System: Cytochrome P450 2D6 (Homo sapiens) (UniProt P10635)
Sequence (P10635 whole entry, looked up): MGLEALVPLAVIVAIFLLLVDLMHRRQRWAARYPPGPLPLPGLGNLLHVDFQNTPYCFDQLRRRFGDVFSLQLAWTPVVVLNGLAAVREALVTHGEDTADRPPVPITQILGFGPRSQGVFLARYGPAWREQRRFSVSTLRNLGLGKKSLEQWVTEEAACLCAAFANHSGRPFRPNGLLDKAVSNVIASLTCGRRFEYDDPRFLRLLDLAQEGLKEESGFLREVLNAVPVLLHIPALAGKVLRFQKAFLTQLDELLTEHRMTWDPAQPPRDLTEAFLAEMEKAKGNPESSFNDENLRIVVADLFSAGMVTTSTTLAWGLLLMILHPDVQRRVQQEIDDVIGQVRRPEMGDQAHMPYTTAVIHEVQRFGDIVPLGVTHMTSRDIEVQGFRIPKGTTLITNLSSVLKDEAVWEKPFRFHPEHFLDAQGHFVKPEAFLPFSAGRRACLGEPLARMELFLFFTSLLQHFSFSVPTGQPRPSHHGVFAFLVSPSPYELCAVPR
Measurement Description: Cytochrome P450 family 2 subfamily D member 6 (CYP2D6) small molecule antagonists: luciferase biochemical (cell-free) qHTS assay (AID 1645840); note: nearly all actives have a fitted effect of over 55% in size
Measurement Context: P450-Glo CYP2D6 enzyme, luciferin luminescence, 1 h; series mostly up to 57.4 µM
From the text: National Center for Advancing Translational Sciences [NCATS] Assay Overview: Cytochrome P450 (CYP) enzymes are membrane-bound hemeproteins that play a key role in metabolism of drugs and xenobiotics. Assaying the effect of chemicals on CYP isozymes is useful to minimize the adverse drug reactions and toxicities in drug development process. […] The luciferin products formed are detected with a luciferin detection reagent, and the amount of light produced is proportional to CYP activity. […]
Inconclusive results are not listed. Activity calls are given as the source filed them. Calls come from the whole dose curve; as a rule, active = well fitted inhibition curve with a large enough effect in the repeat runs; inconclusive = weak or mixed curves; inactive = flat fitted curve, though single readings scatter.
Possible outcomes: 1 = active, 0 = inactive

CC(O)(P(=O)(O)O)P(=O)(O)O
0
COc1c(C)c2c(c(O)c1C/C=C(\C)CCC(=O)O)C(=O)OC2
0
CCCSS/C(CCO)=C(\C)N(C=O)Cc1cnc(C)nc1N
0
C[C@H](CCC(=O)O)[C@H]1CC[C@H]2[C@@H]3C(=O)C[C@@H]4CC(=O)CC[C@]4(C)[C@H]3CC(=O)[C@]12C
0
CC[N+](CC)(CCNC(=O)C(=O)NCC[N+](CC)(CC)Cc1ccccc1Cl)Cc1ccccc1Cl
1
Cc1cccc(C)c1NC(=O)CN1CCN(CCCC(c2ccc(F)cc2)c2ccc(F)cc2)CC1
1
C[n+]1c2cc(N)ccc2cc2ccc(N)cc21 (tested in a mixture with another compound)
1
O=C(Nc1ccc(Oc2ccc(Cl)cc2)c(Cl)c1)c1cc(I)cc(I)c1O
1
c1ccc(OCc2ccc(CCCN3CCOCC3)cc2)cc1
1
